# System: SK-OV-3
# method: NCI tumour cell line growth inhibition, 48 h
Active and inactive are the calls of the source. Cut-off read from the data, not from the text of the source: active = GI50 up to about 1.1 µM and inactive = higher.
Bench note: report the call from active, inactive

compound | system | qualitative_label
COc1ccc(/C=C/C(=N/NC(=O)N/N=C(/C=C/c2ccc(OC)cc2)C(C)C)C(C)C)cc1 | SK-OV-3 | inactive
COC(=O)[C@H](Cc1ccccc1)NC(=O)/C(=C/C(C)C)NC(=O)[C@H](CCSC)NC=O | SK-OV-3 | inactive
c1ccc(N2CCN(CCN3CCc4c([nH]c5ccccc45)C3c3cccnc3)CC2)cc1 (centres undefined) | SK-OV-3 | inactive
O=C1c2ccc(O)cc2OC(c2cc(O)c(O)c(O)c2)C1O (centres undefined) [DIHYDROBINETIN] | SK-OV-3 | inactive
[O-]c1c2c(nn1-c1ccc(Cl)cc1)c1ccccc1c[n+]2Cc1ccccc1 | SK-OV-3 | inactive
CC(C)(CNC(=O)/C(Cl)=C(/Cl)C(=O)O)CNC(=O)/C(Cl)=C(/Cl)C(=O)O | SK-OV-3 | inactive

INPUT: Test call, this compound: "O=C(O)c1cc(O)nc(S)n1"
OUTPUT: inactive

INPUT: Test call, this compound: CC(C)[Si](Oc1ccc(CC2N(C(=O)c3ccc([N+](=O)[O-])cc3)C(CCc3ccccc3)CC2(C)C=O)cc1)(C(C)C)C(C)C (centres undefined)
OUTPUT: inactive

###

# Tested on: KM12
# method: NCI tumour cell line growth inhibition, 48 h
Calls of active or inactive are those of the source. Rule as the data show it: active = GI50 up to about 1.1 µM and inactive = higher. Where a SMILES comes first, the peptide text is derived from it. [ ]: non-standard residue; d: D form. Phe(4-Cl) = N[CH](Cc1ccc(Cl)cc1)C(=O)O
Bench note: report the call from active, inactive

INPUT: Test call, this molecule: "O=S(=O)(/N=C1/S/C(=N\c2ccccc2)N(c2ccccc2)/C1=N/S(=O)(=O)c1ccccc1)c1ccccc1"
OUTPUT: inactive

INPUT: Test call, this molecule: CN(C)CC1CCC(=C2CCCC2)C1=O (centres undefined)
OUTPUT: inactive

INPUT: Test call, this molecule: "CC(C)OC(=O)c1cc(NC(=O)C(C)(C)C)c(F)cc1Cl"
OUTPUT: inactive

INPUT: Test call, this molecule: "CC(C)c1ccc(C(c2c(O)oc3ccccc3c2=O)c2c(O)oc3ccccc3c2=O)cc1"
OUTPUT: inactive

INPUT: Test call, this molecule: "O=c1oc2ccccc2cc1-c1cn2ccccc2n1"
OUTPUT: inactive

INPUT: Test call, this molecule: "Nc1n[n+](CC(=O)c2ccccc2)c2sc(-c3ccccc3)nn12"
OUTPUT: inactive

INPUT: Test call, this molecule: Fc1cccc(F)c1C1SCc2nc3ccccc3n21 (centres undefined)
OUTPUT: inactive

INPUT: Test call, this molecule: "CC1=C(C(=O)NCCc2ccccc2)CC(C(=O)NCCc2ccccc2)=C(C)N1"
OUTPUT: inactive

INPUT: Test call, this molecule: "COc1ccc(/C=C/C(=N/NC(=O)N/N=C(/C=C/c2ccc(OC)cc2)C(C)C)C(C)C)cc1"
OUTPUT: inactive

INPUT: Test call, this molecule: C=CCCCCCCCCCOC1C=CC(O)C(CO)O1 (centres undefined)
OUTPUT: inactive

INPUT: Test call, this molecule: CC(N)(/C=C/c1ccccc1)C(=O)O (centres undefined)
OUTPUT: inactive

INPUT: Test call, this molecule: COC(=O)/C=C1\CCC2[C@@H](C(=O)CC3[C@]2(C)CCC[C@@]3(C)C(=O)OC)C1C (some centres undefined)
OUTPUT: inactive

INPUT: Test call, this molecule: CC(O)C(NC(=O)C(Cc1ccccc1)NC(=O)C(NC(=O)C(CCCCN)NC(=O)C(Cc1c[nH]c2ccccc12)NC(=O)C(Cc1ccc(O)cc1)NC(=O)C(Cc1ccc(Cl)cc1)NC(=O)C(N)Cc1ccccc1)C(C)O)C(N)=O (centres undefined) (H-F[Phe(4-Cl)]YWKTFT-NH2; configuration not given here)
OUTPUT: inactive

INPUT: Test call, this molecule: "O=C1Nc2ccccc2/C1=C1/Nc2ccccc2/C1=N/OCCOCCO"
OUTPUT: active

###

# Tested on: UACC-62
# method: NCI tumour cell line growth inhibition, 48 h
Active and inactive are the calls of the source. No stated cut-off is given here; in the data, active = GI50 up to about 1.1 µM and inactive = higher.
For each of the molecules below, state its GI50.

Solved cases (3 shown):
molecule | system | val
O=C1Nc2ccccc2/C1=C1/Nc2ccccc2/C1=N/OCCOCCO | UACC-62 | 1.44 µM (inactive)
C=C(C)COC1CCCCO1 (stereo unspecified) | UACC-62 | > 100 µM (inactive)
CCC12CCCN(Cc3ccccc3)C1c1c([nH]c3ccccc13)C(C(=O)OC)C2 (stereo unspecified) | UACC-62 | > 10 µM (inactive)

Please supply GI50 for each of the following items, keeping them in order.
1. COc1cc2cc(C(=O)N3CC(COS(C)(=O)=O)c4ccc(NC(=O)OCc5ccccc5)cc43)[nH]c2c(OC)c1OC (stereo unspecified)
2. COc1ccc(C=O)c(NC(=O)C(C)C)c1
3. CN(C)CCCN1c2ccccc2C(C)(C)c2ccccc21
4. COC1=CC(=O)c2c(O)ccc(O)c2C1=O
5. O=S(=O)(c1ccccc1)N1CCN(S(=O)(=O)c2ccccc2)c2ccccc21
6. Cc1ccc2c(c1)C=CC1(O2)N(c2ccccc2)C(=S)OC1(C)C (stereo unspecified)
7. CC(=O)N1NC(c2ccccc2)=CC(=O)/C1=C/C(=O)c1ccccc1
8. COC(=O)c1ccc(/C=C2\CCc3ccccc3C2=O)cc1

OUTPUT:
["> 100 µM (inactive)", "30.3 µM (inactive)", "13.1 µM (inactive)", "1.92 µM (inactive)", "64.7 µM (inactive)", "40.9 µM (inactive)", "42.5 µM (inactive)", "> 100 µM (inactive)"]

###

For each of the molecules below, state its GI50.
# Tested on: SF-539
# method: NCI tumour cell line growth inhibition, 48 h
Activity calls are given as the source filed them. Cut-off read from the data, not from the text of the source: active = GI50 up to about 1.1 µM and inactive = higher.

Solved cases (2 shown):
molecule | GI50
CNc1ncnc2c1nnn2C | > 100 µM (inactive)
O=S(=O)(O)c1ccc(NN(c2c(O)ccc3ccccc23)S(=O)(=O)O)cc1 | > 100 µM (inactive)

Please supply GI50 for each of the following items, keeping them in order.
1. Cc1[nH]c2ncn(N)c(=N)c2c1Cc1ccccc1
2. Cc1ccc(S(=O)(=O)N/N=C/C(=C/c2ccc(Cl)cc2)CC(/C=N/NS(=O)(=O)c2ccc(C)cc2)=C\c2ccc(Cl)cc2)cc1
3. CN(C)CCNS(=O)(=O)c1ccc(N)cc1

OUTPUT:
58.2 µM (inactive)
12.1 µM (inactive)
> 100 µM (inactive)

Please supply GI50 for each of the following items, keeping them in order.
1. O=C1C2Nc3ccccc3SC2C(=O)N1c1ccccc1C(F)(F)F (centres undefined)
2. NC(=S)/N=C(/c1nc2ccc(Cl)cc2nc1O)C(O)c1ccccc1Cl (centres undefined)
3. C/C(=N/NC(N)=S)C(CN1CCOCC1)C(C1=C(O)c2ccccc2OC1)c1ccccc1 (centres undefined)

OUTPUT:
1: 17.8 µM (inactive); 2: > 100 µM (inactive); 3: > 100 µM (inactive)

###

# Test system: MCF7
# method: NCI tumour cell line growth inhibition, 48 h
Active and inactive are the calls of the source. Rule as the data show it: active = GI50 up to about 1.1 µM and inactive = higher.
For each of the compounds below, state its GI50.

Solved cases (3 shown):
compound | GI50
COc1ccccc1Nc1nc(NNC(=O)Cc2ccccc2)nc(NNC(=O)c2ccncc2)n1 | > 10 µM (inactive)
CCC1=NC(C(F)(F)F)(C(F)(F)F)N=C(/N=C(/N)N(C)C(C(C)C)P(=O)(OC(C)C)OC(C)C)O1 (centres undefined) | > 100 µM (inactive)
O=C1/C(=C/c2ccc(Cl)cc2)Oc2ccccc21 | 30.2 µM (inactive)

Field: next compound
Recorded GI50 for "O=c1oc2ccc3ccccc3c2cc1-c1nnc(Nc2ccccc2)s1" on MCF7 was 34.8 µM (inactive)

###

For each of the compounds below, state its GI50.
# Test system: RPMI-8226
# method: NCI tumour cell line growth inhibition, 48 h
Active and inactive are the calls of the source. Cut-off read from the data, not from the text of the source: active = GI50 up to about 1.1 µM and inactive = higher.

compound | recorded_metric | val
Cc1cccc2c1c(=O)c1c(O)c3c(cc1n2C)OC(C)(C)C=C3 | GI50 | > 10 µM (inactive)
CC12CCC(C(=O)N3CC=CCC3)(OC1=O)C2(C)C (stereo not drawn) | GI50 | > 100 µM (inactive)
N=c1c2c(ncn1N)Oc1c(c(-c3ccccc3)nn1-c1ccccc1)C2c1ccc(Cl)cc1 (stereo not drawn) | GI50 | 2.35 µM (inactive)

Please supply GI50 for each of the following items, keeping them in order.
1. CSc1nc(C)c(CCOC(C)=O)c(Cl)n1
2. O=C1C2Nc3ccccc3SC2C(=O)N1c1ccccc1C(F)(F)F (stereo not drawn)
3. COc1ccc(-c2cc(O)c3cc(OC)c(OC)cc3n2)cc1OC
4. COC(=O)C(Cc1c[nH]c2ccccc12)NC1=Nc2ccncc2S(=O)(=O)N1c1ccccc1 (stereo not drawn)
5. O=C(O)C(Cc1ccc2c(c1)CCC2)(Cc1ccc2c(c1)CCC2)C(=O)O

OUTPUT:
> 100 µM (inactive)
29 µM (inactive)
> 100 µM (inactive)
13.1 µM (inactive)
> 100 µM (inactive)
